Each record here notes measured GFP MFI, FIG. 10.
System: GFPY40 reporter (GFP containing an amber codon) in HEK293 cells stably expressing pylRS
Assay: Amber suppression-dependent GFP expression (GFPY40 reporter), transient transfection, flow cytometry
Format: cell-based
Settings: cells stably expressing WTpylRS; lys azide; three days
measurement_label: GFP MFI, FIG. 10

[
  {
    "molecule": "7SL B tRNA: tRNA-B downstream of the 7SL promoter 5′ region (nucleic acid, Synthetic sequence 7SL tRNA-B construct, tRNA-B downstream of the 7SL promoter 5′ region) DNA: CCCAGTTGATGACGTCACCATACCACAGCTTCTAGTGCTATTCTGCGCCGGTATCCGACCACCAGGAAACCTGATCATGTAGATCGAATGGACTCTAAATCCGTTCAGCCGGGTTCGATTCCCGGGGTTTCCGGACAAGTGCGGTTTTT",
    "measurement_label": "GFP MFI, FIG. 10",
    "quantitative_readout": 520
  },
  {
    "molecule": "H1-tRNA: WT tRNApyl under control of the H1 promoter, positive control (nucleic acid, Synthetic sequence H1 tRNA-WT construct) DNA: AATATTTGCATGTCGCTATGTGTTCTGGGAAATCACCATAAACGTGAAATCCCTATCAGTGATAGAGACTTATAAGTTCCCTATCAGTGATAGAGACACCAGGAAACCTGATCATGTAGATCGAATGGACTCTAAATCCGTTCAGCCGGGTTAGATTCCCGGGGTTTCCGGACAAGTGCGGTTTTTTT",
    "measurement_label": "GFP MFI, FIG. 10",
    "quantitative_readout": 453
  },
  {
    "molecule": "7SL WT tRNA: WT tRNApyl downstream of the 7SL promoter 5′ region (nucleic acid, Synthetic sequence 7SL tRNA-WT construct, WT tRNApyl downstream of the 7SL promoter 5′ region) DNA: CCCAGTTGATGACGTCACCATACCACAGCTTCTAGTGCTATTCTGCGCCGGTATCCGACCACCAGGAAACCTGATCATGTAGATCGAATGGACTCTAAATCCGTTCAGCCGGGTTAGATTCCCGGGGTTTCCGGACAAGTGCGGTTTTT",
    "measurement_label": "GFP MFI, FIG. 10",
    "quantitative_readout": 312
  },
  {
    "molecule": "B tRNA: tRNApyl Methanosarcina mazei with A52C mutation (B-box) (nucleic acid, expressed or natural sequence) DNA: GGAAACCTGATCATGTAGATCGAATGGACTCTAAATCCGTTCAGCCGGGTTCGATTCCCGGGGTTTCCG",
    "measurement_label": "GFP MFI, FIG. 10",
    "quantitative_readout": 329
  }
]
